Origin of measurements: the supplement of paper PMC6757056

Reported FACS-Seq fitted mean (log10) values are given for each entry in this list.
B1: library; a variant is named by its letters at N, in order (parent)
chain: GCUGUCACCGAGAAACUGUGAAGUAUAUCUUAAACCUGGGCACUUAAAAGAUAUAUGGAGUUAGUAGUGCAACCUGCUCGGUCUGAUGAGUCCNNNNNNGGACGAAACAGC

Variants of: B1
Assay name: FACS-Seq fitted mean relative fluorescence mCherry/BFP without ligand (log10 relative fluorescence); HEK293T; ligand: cyclic di-GMP (c-di-GMP-II aptamer); higher = higher reporter protein expression
Recorded conditions: ligand present: no

{"Sequence change": "UAAUUU", "FACS-Seq fitted mean (log10)": -0.17}
{"Sequence change": "CCCCUG", "FACS-Seq fitted mean (log10)": -0.147}
{"Sequence change": "CCGCCA", "FACS-Seq fitted mean (log10)": -0.184}
{"Sequence change": "AUACAA", "FACS-Seq fitted mean (log10)": -0.183}
{"Sequence change": "CGUCGA", "FACS-Seq fitted mean (log10)": -0.179}
{"Sequence change": "CUGAGU", "FACS-Seq fitted mean (log10)": -0.459}
{"Sequence change": "GAGCAG", "FACS-Seq fitted mean (log10)": -0.832}
{"Sequence change": "CCCCUU", "FACS-Seq fitted mean (log10)": -0.25}
{"Sequence change": "AAAAUU", "FACS-Seq fitted mean (log10)": -0.708}
{"Sequence change": "GCGAUA", "FACS-Seq fitted mean (log10)": -0.474}
